target: NKp30 on human NK cells (human) (UniProt O14931); assay: cell-based or functional assay
Sequence (O14931 19-201): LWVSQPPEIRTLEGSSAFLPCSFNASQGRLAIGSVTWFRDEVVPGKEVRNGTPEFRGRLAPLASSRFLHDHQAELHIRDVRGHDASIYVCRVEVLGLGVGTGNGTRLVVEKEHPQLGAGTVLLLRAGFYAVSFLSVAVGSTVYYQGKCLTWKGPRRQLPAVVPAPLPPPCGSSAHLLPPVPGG
Reported metric: A549 EC50 with PBMC (pM)
Write the number in pM without appending the unit.

Binder | A549 EC50 with PBMC (pM)
ΔB7-H6_S3#16-SEED-PGLALA (bispecific antibody, part only; not given: SEED Fc chains and hu225 Fab, part only) chain, part: DLKVEMMAGGTQITPLNDNVTIFCNIFYSQPLNITLMGITWFWKSLTFDKEVKVFEFYGDHQEAFRPGAIVSPWRLKSGDASLRLPGIQLEEAGEYRCEVVVTPYKAQGTVQLEVVASPAS | 206
ΔB7-H6_S3#15-SEED-PGLALA (bispecific antibody, part only; not given: SEED Fc chains and hu225 Fab, part only) chain, part: DLKVEMMAGGTQITPLNDNVTIFCNIFYSQPLNITIMGITWFWKSLTFDKEVKVFEFWGDHQEAFRPGAIVSPWRLKSGDASLRLPGIQLEEAGEYRCEVVVTPYKAQGTVQLEVVASPAS | 133
ΔB7-H6_S3#29-SEED-PGLALA (bispecific antibody, part only; not given: SEED Fc chains and hu225 EGFR Fab, part only) chain, part: DLKVEMMAGGTQITPLNDNVTIFCNIFYSQPLNITVMGITWFWKSLTFDKEVKVFEFWGDHQEAFRPGAIVSPWRLKSGDASLRLPGIQLEEAGEYRCEVIVTPYKAQGTVQLEVVASPAS | 172
ΔB7-H6_S3#24-SEED-PGLALA (bispecific antibody, part only; not given: SEED Fc chains and hu225 Fab, part only) chain, part: DLKVEMMAGGTQITPLNDNVTIFCNIFYSQPLNITIMGITWFWKSLTFDKEVKVFEFYGDHQEAFRPGAIVSPWRLKSGDASLRLPGIQLEEAGEYRCEVVVTPYKAQGTVQLEVVASPAS | 108
ΔB7-H6_S3#25-SEED-PGLALA (bispecific antibody, part only; not given: SEED Fc chains and hu225 Fab, part only) chain, part: DLKVEMMAGGTQITPLNDNVTIFCNIFYSQPLNITWMGITWFWKSLTFDKEVKVFEFYGDHQEAFRPGAIVSPWRLKSGDASLRLPGIQLEEAGEYRCEVVVTPYKAQGTVQLEVVASPAS | 135

Could you now consider this next binder?
Data point: ΔB7-H6_S3#31-SEED-PGLALA (bispecific antibody, part only; not given: SEED Fc chains and hu225 EGFR Fab, part only) chain, part: DLKVEMMAGGTQITPLNDNVTIFCNIFYSQPLNITIMGITWFWKSLTFDKEVKVFEFYGDHQEAFRPGAIVSPWRLKSGDASLRLPGIQLEEAGEYRCEVVVTPLKAQGTVQLEVVASPAS ; A549 EC50 with PBMC (pM) = 224

Taken from patent US20230287082A1.
